Items are presented alongside their recorded OD450.
- MEASURED TARGET: T1, biotin-peptide MADDYGSEST (human)
- T1 peptide: Biotin-MADDYGSEST
- ASSAY EXPLANATION: ELISA biotin-peptide; scFv 10 ug/mL; repII
Where no end group is shown, it is not given here. The star is where a group is joined. Biotin = O=C1N[C@H]2[C@H](CS[C@H]2CCCCC(=O)*)N1
I only need the number, in OD, no unit after it.

**Q:** Any idea what OD450 was measured for CCR9_HUM2 scFv (humanized anti-CCR9 scFv, SEQ ID NO: 17 with C-terminal 6xHis tag) (scFv) scFv: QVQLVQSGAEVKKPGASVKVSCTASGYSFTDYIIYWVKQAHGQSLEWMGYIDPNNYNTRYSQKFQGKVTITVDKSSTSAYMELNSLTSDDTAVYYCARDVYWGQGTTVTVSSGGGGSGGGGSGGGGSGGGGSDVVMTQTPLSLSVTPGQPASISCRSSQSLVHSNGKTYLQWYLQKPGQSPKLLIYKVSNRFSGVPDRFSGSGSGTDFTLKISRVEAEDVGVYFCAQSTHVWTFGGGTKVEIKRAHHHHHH ?
**A:** 0.16

Where do these numbers come from? They come from patent US20260232732A1.
